# OD450 at 0.004 nM values compiled below
MEASURED TARGET: biotinylated labeled human GPC3 protein (produced in-house) (human, UniProt P51654 25-559, limits assumed, biotinylated (Dojindo, Cat. No. LK03); sites not stated)
EXPERIMENT SUMMARY: ELISA, biotinylated human GPC3 protein
The figure you give is taken to be in OD450; do not add the unit.

BINDER	OD450 at 0.004 nM, OD450
hAb006LH3L1a (antibody, human IgG1, V domains shown, Humanized F3.38.7; VH H3 + VL L1a; expressed as human IgG1) VH: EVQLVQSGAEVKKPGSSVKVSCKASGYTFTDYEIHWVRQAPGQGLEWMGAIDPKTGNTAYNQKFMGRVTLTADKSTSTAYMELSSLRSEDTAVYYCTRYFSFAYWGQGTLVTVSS VL: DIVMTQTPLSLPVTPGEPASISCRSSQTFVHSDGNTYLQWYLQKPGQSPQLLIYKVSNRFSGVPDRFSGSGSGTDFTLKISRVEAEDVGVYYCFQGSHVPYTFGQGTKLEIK	0.072

Here is the next item to consider.
Reported OD450 at 0.004 nM of hAb005LH3L1b (antibody, human IgG1, V domains shown, Humanized F3.54.12; VH H3 + VL L1b; expressed as human IgG1) VH: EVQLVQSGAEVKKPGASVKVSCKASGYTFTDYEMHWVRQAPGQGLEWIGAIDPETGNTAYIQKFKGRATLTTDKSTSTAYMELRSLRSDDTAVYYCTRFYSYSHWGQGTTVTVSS VL: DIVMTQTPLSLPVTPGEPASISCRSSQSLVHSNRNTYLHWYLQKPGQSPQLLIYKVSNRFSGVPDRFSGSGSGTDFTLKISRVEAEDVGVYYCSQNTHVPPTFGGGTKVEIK : 0.169
